# Test system: Drosophila bursicon receptor LGR2 (rickets)
# experiment.notes: inhibitors of bursicon-induced LGR2 CRE-luciferase signal, primary screen, cell-based, HEK293, CRE-luciferase reporter, bursicon stimulation (AID 720647);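 further: agonist challenge used bursicon conditioned medium at about half maximal strength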
# conditions: bursicon-stimulated, 4 h, at 9.99 µM
Hit rate of the full screen: of about 380,000 compounds, about 1,300 (0.34%) were called active.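 How the source made its calls: active means drop in luminescence signal, shown as inhibition above about 50% in the replicate tests (limit read from the data, passing the limit was not always enough); inconclusive means probably only some replicates passing the limit; inactive means the rest.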 For the sample, actives were picked, then their nearest neighbours and some compounds at random.
Return exactly one item of active, inactive

Lookup: Give the logged outcome of this assay for the following compound: COc1ccc2c3c([nH]c2c1)[C@H](CO)N(Cc1cccc(F)c1)CC31CCN(CC2CC2)CC1
Found: inactive

Lookup: Could you please tell me the result logged for CCS(=O)(=O)N1CC2(CN(Cc3ccccc3)[C@@H](CO)c3c2c2ccc(OC)cc2n3C)C1 in this assay?
Found: inactive

Lookup: // outcome(item) with item = C[C@H]1CN([C@@H](C)CO)S(=O)(=O)c2ccc(-c3cccc(C#N)c3)cc2O[C@H]1CN(C)CC1CC1
Found: inactive

Lookup: What is the recorded call for this compound in the test? CCCN1[C@@H]2c3ccc(C4=CCCC4)c(=O)n3C[C@@H]2[C@@H](CO)[C@@H]1C(=O)NCc1ccccn1
Found: inactive

Lookup: Please indicate how the test categorized Cc1ccnc(N2C(=O)c3ccccc3C2Nc2ccc3c(c2)OCCO3)c1 (stereo not drawn) .
Found: active

Lookup: Status in this test for COc1ccc2c(c1)c(=Cc1ccc(N(C)C)cc1)c1cc(-c3ccccc3)[n+](C)n12 ?
Found: active

Lookup: What outcome does the record of this test show for Cc1noc(C)c1S(=O)(=O)N(C)C[C@@H]1OCCCC[C@@H](C)Oc2ccc(NC(=O)c3ccccc3)cc2C(=O)N([C@@H](C)CO)C[C@@H]1C ?
Found: inactive

Lookup: Any idea what this test logged for C[C@@H]1CN([C@@H](C)CO)C(=O)c2cc(NS(=O)(=O)c3ccccc3)ccc2O[C@H]1CN(C)S(=O)(=O)c1ccc(Cl)cc1 ?
Found: inactive
